Measured values drawn from ChEMBL document CHEMBL1147436 for this set.

# target system: Protein farnesyltransferase (Homo sapiens, UniProt P49354+P49356)
# experiment description: Inhibition of farnesyltransferase
# Type: protein-complex assay
readout: IC50 (nM)

Looking up N#Cc1ccc(Cn2cncc2CN[C@H]2Cc3ccccc3CN(c3cccc(Cl)c3)C2=O)cc1 , I found its IC50 recorded as 1

Lookup result for N#Cc1ccc(Cn2cncc2CNC2Cc3ccccc3CN(c3cccc(Cl)c3)C2=O)cc1 (racemic) ; measured IC50: 4

Looking up N#Cc1ccc(Cn2cncc2CNC2C(=O)N(Cc3ccccc3Cl)CCc3ccccc32)cc1 (centres undefined) , I see its IC50 listed as 23

a = N#Cc1ccc(Cn2cncc2CNC2Cc3ccccc3CN(Cc3cccc(Cl)c3)C2=O)cc1 (centres undefined)
b = N#Cc1ccc(Cn2cncc2CNC2C(=O)N(c3cccc(Cl)c3)CCc3ccccc32)cc1 (racemic)
## Task Lab note: record which item had the higher IC50, a or b . Reply briefly: the label of your chosen item.
## Result b

----------
# target system: Protein farnesyltransferase (Homo sapiens, UniProt P49354+P49356)
# experiment description: Inhibition of Farnesyltransferase
# Format: protein-complex assay
readout: IC50 (nM)
Numbers only here, please. The scale is nM.

The molecule listed as N#Cc1ccc(Cn2cncc2CNC2C(=O)N(c3cc(Cl)cc(Cl)c3)CCc3ccccc32)cc1 (stereo unspecified) shows IC50 equal to 32

----------
# experiment description: Inhibitory activity against v-H-Ras gene transfected cell line
# Assay type: functional
pIC50: −log10 of the molar value.
readout: pIC50

Please review the following examples before continuing.
Short answer for N#Cc1ccc(Cn2cncc2CNC2Cc3ccccc3CN(Cc3ccccc3Cl)C2=O)cc1 (stereo unspecified) : pIC50 was 8.22

Lab note: N#Cc1ccc(Cn2cncc2CNC2Cc3ccccc3CN(c3cccc(Cl)c3)C2=O)cc1 (racemic) gave pIC50 of 7.80

a = N#Cc1ccc(Cn2cncc2CNC2Cc3ccccc3CN(Cc3ccc(Cl)cc3Cl)C2=O)cc1 (stereo unspecified)
b = N#Cc1ccc(Cn2cncc2CNC2Cc3ccccc3CN(CC3CCCCC3)C2=O)cc1 (stereo unspecified)
c = N#Cc1ccc(Cn2cncc2CNC2Cc3ccccc3CN(c3cc(Cl)cc(Cl)c3)C2=O)cc1 (stereo unspecified)
d = N#Cc1ccc(Cn2cncc2CNC2Cc3ccccc3CN(Cc3cc(F)cc(F)c3F)C2=O)cc1 (stereo unspecified)
e = N#Cc1ccc(Cn2cncc2CN[C@H]2Cc3ccccc3CN(c3ccccc3)C2=O)cc1
## Task Sort by pIC50, descending. Your answer should be the labels, listed in the requested order.
## Result c, e, b, d, a
(c: 8.15, e: 7.80, b: 7.59, d: 7.33, a: 6.85)

1 = N#Cc1ccc(Cn2cncc2CNC2Cc3ccccc3CN(c3cccc(F)c3)C2=O)cc1 (racemic)
2 = N#Cc1ccc(Cn2cncc2CNC2C(=O)N(c3ccccc3)CCc3ccccc32)cc1 (stereo unspecified)
3 = N#Cc1ccc(Cn2cncc2CN[C@H]2Cc3ccccc3CN(c3cccc(Cl)c3)C2=O)cc1
## Task Sort the 3 compounds by pIC50; largest first, smallest last. Field: ranking. Enter the labels in the order requested.
## Result 3, 1, 2

----------
# experiment description: Inhibitory activity against v-H-Ras gene transfected cell line
# Format: functional
pIC50: −log10 of the molar value.
readout: pIC50

Consider the following illustrative entries.
Form: compound = N#Cc1ccc(Cn2cncc2CNC2C(=O)N(c3cc(Cl)cc(Cl)c3)CCc3ccccc32)cc1 (centres undefined) ; pIC50 = 7.72

Record N#Cc1ccc(Cn2cncc2CNC2C(=O)N(Cc3ccccc3Cl)CCc3ccccc32)cc1 (centres undefined) . Reported pIC50: 7.04

Item: N#Cc1ccc(Cn2cncc2CNC2Cc3ccccc3CN(c3cccc([N+](=O)[O-])c3)C2=O)cc1 (racemic) | pIC50: 7.34

Measured pIC50 of Cc1ccccc1CN1CCc2ccccc2C(NCc2cncn2Cc2ccc(C#N)cc2)C1=O (centres undefined) : 7.02

Input Cc1ccccc1CN1Cc2ccccc2CC(NCc2cncn2Cc2ccc(C#N)cc2)C1=O (centres undefined) . Output pIC50: 8.40

I = N#Cc1ccc(Cn2cncc2CNC2C(=O)N(Cc3cccc(Cl)c3)CCc3ccccc32)cc1 (centres undefined)
II = N#Cc1ccc(Cn2cncc2CNC2C(=O)N(c3cccc(Cl)c3)CCc3ccccc32)cc1 (racemic)
III = N#Cc1ccc(Cn2cncc2CNC2C(=O)N(Cc3cc(F)cc(F)c3)CCc3ccccc32)cc1 (centres undefined)
IV = N#Cc1ccc(Cn2cncc2CN[C@H]2CCCCN(Cc3ccccc3)C2=O)cc1
## Task Let's sort these by pIC50, smallest first. Go ahead? Arrange the labels as the request states and list them.
## Result III, I, II, IV
